# System: biotinyl-Ile-oxazolone
# measurementDescription: self-aminoacylation, catalytic enhancement (BIO) (fold over background); higher = more active; k-Seq, kA / k0A0; sequences stand for … in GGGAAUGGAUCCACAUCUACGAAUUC…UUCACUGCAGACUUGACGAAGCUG
Fewer inactive variants are shown than the library holds.
Entries and their measured self-aminoacylation follow.
Would you mind answering with just the numeric figure?

1) AAGUUUGCGAAUAGUCGCAUG [Fam3.1 aminoacylation ribozyme variant]    1.1
2) AUUACCCUGCUCAACGAGUGA [Fam2.1 aminoacylation ribozyme variant]    2.33
3) ACACACUUCAAUCAAUCGGUC [Fam1B.1 aminoacylation ribozyme variant]    1.59

(Q) Determine its reported self-aminoacylation: AAGUGUGCUAAUGGUCGCAAG [Fam3.1 aminoacylation ribozyme variant]
(A) 0.864

(Q) Determine its reported self-aminoacylation: AAUACCCGGGUCAUCGAGUGA [Fam2.1 aminoacylation ribozyme variant]
(A) 3.72

(Q) Determine its reported self-aminoacylation: AUUCACCCAGGUCAUCCGGUG [Fam2.2 aminoacylation ribozyme variant]
(A) 6.38

(Q) Determine its reported self-aminoacylation: AUUCUUCAAACAAUCGGUCUG [Fam1A.1 aminoacylation ribozyme variant]
(A) 0.672

(Q) Determine its reported self-aminoacylation: ACUACCCUAGUCAUCGAGUGA [Fam2.1 aminoacylation ribozyme variant]
(A) 2.95

(Q) Determine its reported self-aminoacylation: AUUCACGUAAGUCAUCGGGUG [Fam2.2 aminoacylation ribozyme variant]
(A) 9.9

(Q) Determine its reported self-aminoacylation: CUACACUUCAAGCAAUCGGUU [Fam1B.1 aminoacylation ribozyme variant]
(A) 1.29

(Q) Determine its reported self-aminoacylation: CCACACUUCAAGCACUUGGUC [Fam1B.1 aminoacylation ribozyme variant]
(A) 0.816

(Q) Determine its reported self-aminoacylation: CUACUCCAGACAAUCGGUCUG [Fam1A.1 aminoacylation ribozyme variant]
(A) 1

(Q) Determine its reported self-aminoacylation: UUUACCCUGGUCAUUGAGUGA [Fam2.1 aminoacylation ribozyme variant]
(A) 3.76

(Q) Determine its reported self-aminoacylation: AUUAGCCAGGUCAUCGAGUGA [Fam2.1 aminoacylation ribozyme variant]
(A) 3.72

(Q) Determine its reported self-aminoacylation: AAGGUUGCUAAUUGUCGCAAG [Fam3.1 aminoacylation ribozyme variant]
(A) 1.56

(Q) Determine its reported self-aminoacylation: CCACACUUUAAGAAAUCGGUC [Fam1B.1 aminoacylation ribozyme variant]
(A) 0.841

(Q) Determine its reported self-aminoacylation: CAACACGUCAAGCAAUCGGUC [Fam1B.1 aminoacylation ribozyme variant]
(A) 1.11

(Q) Determine its reported self-aminoacylation: CCACACAUCAAACAAUCGGUC [Fam1B.1 aminoacylation ribozyme variant]
(A) 0.795
